- Protocol summary: in vivo
- Condition label: female, BALB/c, mouse, po, 10 mg/kg
Reported metric: Cmax (ng/mL)
// note: answer is a bare numeric in ng/mL

Req: Given the compound COc1ccc2ncc(F)c(C[C@H](O)[C@H]3OC[C@H](NCc4cnc5c(n4)NC(=O)CO5)CO3)c2n1 [OSUAB-0284] , write its reported Cmax.
Resp: 6280

###

- Protocol summary: in vivo
- Condition label: female, BALB/c, mouse, po, 50 mg/kg
Reported metric: half-life

Req: Give recorded half-life. COc1ccc2ncc(F)c(C[C@H](O)[C@H]3OC[C@H](NCc4cnc5c(n4)NC(=O)CO5)CO3)c2n1 [OSUAB-0284]
Resp: 2.6 h
